# method notes: soluble on expression in E. coli; label from the status in PepcDB or PDB records
measured quantity: soluble on expression in E. coli

Guide cases for soluble on expression in E. coli, answers given:
MRTMKAPSMGATVEVLSFLQPVTRELVHRSSIAEVFVTDGVRTGENAFSVGAQWPRDHALYHPDENGLNDPLLFAETLRQAHFYGAHTYFGVPVGSRFIGQDVSFEITDPTALRVGAAPLAVVLNGTWTEERDRRGRPAGARLDVTLTVDGRPCGRGHTRGLMLDDRRYRLLRGRPAASGEVSPPRPAPDARIARPNRVGRLRWKDCVLERDRPDQDWRLRVDRDHAVLFDHPTDHVPLMVMLEGFRQLGHLTVHEASRRTLGDRAFALAGLSLDCAAFGELGETILLSLEKGPSEGVPTEECALRVAAHQGERLLARADMTWKCVGSRAPWSRFASWLEHHHHHH    not soluble
MQKTLSAIFLFTTLSANAAPYIGLELGIGTANHSFETNYQSDAVSLNPNMEDMFLGGLIGYKFNDNFSFEINYSSYKLEDQYSKFIGIESLNNQQYRKEHEWSSEIEAKQLALISVYSYPIHQQLKTNIKVGVTHTQYEAYSGKYEELELLLNDDIEIRKALLETGLKKNRFGALFSLGLDYNLIPELSVGTELRYQFDKYNDVLSISLNSKYYF    not soluble
MEQETLEQVHLTEDGGVVKTILRKGEGGEENAPKKGNEVTVHYVGKLESSGKVFDSSRERNVPFKFHLGQGEVIKGWDICVASMTKNEKCSVRLDSKYGYGEEGCGESIPGNSVLIFEIELISFRE    soluble
MGSDKIHHHHHHMGLEQDDEGGARRACVIVIGNQKGGSGKSTVAMHLVVSLARAGLRTGSIDLDAGQATLTRYLENRRAFAEKRGLDLPSPEHVPMVPGTSLEADIRRLEHSMLAFHEEVDVVVIDTPGSDTALNRAAHALADVLITPLNDSFIDLDVMARIDGDSMTITGPSPYAAAVWEAKQARARRDGTSMRWIVMRNRLSHLDARNKRDMEDALNDLSRRIGFSVVPGLGERVIYRELFLNGLTLLDLKDKGTGVDISMSHVAARQELRALLAAIGMPKSIGL    not soluble
MSLKYVKSLFEIHPDIATKFRIKNQYLKTGYMNVLLCLIETVRRSPKEISKNDLADAYVALESLTDHGFKLDWLKKKLDQVTQKKEKEAAGETRMHEIGEELKDLKLKCSDLEAQLDKVKWKCSDLEAQLVKEKADVLAAIAPLGSSDDGVFDDFFEKQYTGFVRKYQIGASQTWFLLLNSRPKIVDFWSRANSKALLKARFLKLLAYAMCQNQKAWMSTGFMFYLPKRLLAFPKGNDTKSDHLSLYLDVAESESLPCGWRRHAQFSFTIVNHIPEKCSQRKDGEGSSFYEEIQLGHQEFLLFAIAENILASVRDARLQEGHHHHHH    not soluble

Problem: Look up and report measured soluble on expression in E. coli for this entry: `MSLGGSAMYHAQLGREYHEKALKYRSLAMRSLAHSGTSHSLDLHGATVREAKTIVRERVAAWWAKEADTSPNSIRPFVIVTGRGNHSIGLEARLLPAIVRLLQQDHWRFDAEHGQITVYGINRHSKEGHHHHHH`
Solution: soluble

Problem: Look up and report measured soluble on expression in E. coli for this entry: `MAHHHHHHMVFSTHGIRVVYNTANVDRSLYAVVHCSDGKYAEVSKDHLNRLKFIEKSSEEEDIEFDYPEAVLESLAQWTLKYGMDGVAVSSTVRPCIYRNVQHVLKDDWEREFFTTRLMNDLNIMHYLQTINAAEKYEMKGFHDFLCVCLSCKLRNEEDTELVHKIMGLEDFVEIGPSDLDEAACRYTWLDQAIKPTVRR`
Solution: not soluble
